- SYSTEM: TrkB (Homo sapiens (Human), UniProt Q16620 32-430)
- Sequence (Q16620 32-430 limits assumed): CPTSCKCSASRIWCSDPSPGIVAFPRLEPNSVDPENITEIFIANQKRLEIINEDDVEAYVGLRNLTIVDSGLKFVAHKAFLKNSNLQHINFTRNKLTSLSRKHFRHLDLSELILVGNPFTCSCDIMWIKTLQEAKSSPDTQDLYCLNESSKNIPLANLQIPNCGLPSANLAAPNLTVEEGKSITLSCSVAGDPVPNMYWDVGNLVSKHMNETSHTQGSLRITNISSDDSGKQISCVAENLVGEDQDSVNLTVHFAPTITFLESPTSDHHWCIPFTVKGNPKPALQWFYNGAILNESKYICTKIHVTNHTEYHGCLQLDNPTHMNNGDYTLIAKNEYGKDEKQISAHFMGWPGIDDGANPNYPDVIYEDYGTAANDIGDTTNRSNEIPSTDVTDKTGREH
- TEST: koff of Fab at 25 C; T1/2=Log2/koff
Parameter T1/2: see the listing below.

BINDER: A2 (Fab, V domains shown, Fab) VH: QVQLVQSGAEVKKPGASVKVSCKASGYTFTNYDIIWVRQAPGQGLEWMGYINPYNDGTKYNEKFKGRVTMTRDTSTSTVYMELSSLRSEDTAVYYCARLLKYRRFRYYAIDYWGQGTTVTVSS VL: DIQMTQSPSSLSASVGDRVTITCRASENVYSNLAWYQQKPGKAPKLLIYAASNLQSGVPSRFSGSGSGTDYTFTISSLQPEDIATYYCQHFWYSPWTFGQGTKLEIK
T1/2: 6 min
//
BINDER: 12-C9 (Fab, V domains shown, Fab) VH: QVQLVQSGAEVKKPGASVKVSCKASGYTFTNYDIIWVRQAPGQGLEWMGYINPYNGRTEYNEKFKGRVTMTRDTSTSTVYMELSSLRSEDTAVYYCARLLKYRRFRYYAIDYWGQGTTVTVSS VL: DIQMTQSPSSLSASVGDRVTITCRASKNVYSNLAWYQQKPGKAPKLLIYAASNLQSGVPSRFSGSGSGTDFTFTISSLQPEDIATYYCQQFWYSPFTFGQGTKLEIK
T1/2: 0.8 min
//
BINDER: 6-B4 (Fab, V domains shown, Fab) VH: QVQLVQSGAEVKKPGASVKVSCKASGYTFTNYVILWVRQAPGQGLEWMGYINPYNDGTKYNEKFKGRVTMTRDTSTSTVYMELSSLRSEDTAVYYCARLLKYRRFQYYAIDYWGQGTTVTVSS VL: DIQMTQSPSSLSASVGDRVTITCRASENVYSNLAWYQQKPGKAPKLLIYAASNLQSGVPSRFSGSGSGTDFTFTISSLQPEDIATYYCQHFWYSPFTFGQGTKLEIK
T1/2: 1.55 min
//
BINDER: 5-F1 (Fab, V domains shown, Fab) VH: QVQLVQSGAEVKKPGASVKVSCKASGYTFTNYVILWVRQAPGQGLEWMGYINPYNDGTKYNEKFKGRVTMTRDTSTSTVYMELSSLRSEDTAVYYCARLLKYRRFKYYAIDYWGQGTTVTVSS VL: DIQMTQSPSSLSASVGDRVTITCRASENVYSNLAWYQQKPGKAPKLLIYAASNLQSGVPSRFSGSGSGTDFTFTISSLQPEDIATYYCQHFWYSPFLFGQGTKLEIK
T1/2: 1.6 min
//
BINDER: 11-D7 (Fab, V domains shown, Fab) VH: QVQLVQSGAEVKKPGASVKVSCKASGYTFTNYDIIWVRQAPGQGLEWMGYINPYNGRREYNEKFKGRVTMTRDTSTSTVYMELSSLRSEDTAVYYCARLLKYRRFRYYAIDYWGQGTTVTVSS VL: DIQMTQSPSSLSASVGDRVTITCRASENVYRNLAWYQQKPGKAPKLLIYAASNLQSGVPSRFSGSGSGTDFTFTISSLQPEDIATYYCQHFWGSPFTFGQGTKLEIK
T1/2: 4.1 min
//
BINDER: 10-A7 (Fab, V domains shown, Fab) VH: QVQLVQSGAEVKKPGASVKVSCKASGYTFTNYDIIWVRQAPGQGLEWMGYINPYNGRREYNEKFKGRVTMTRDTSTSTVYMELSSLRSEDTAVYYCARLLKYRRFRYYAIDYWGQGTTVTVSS VL: DIQMTQSPSSLSASVGDRVTITCRASENVYSHLAWYQQKPGKAPKLLIYAASNLQSGVPSRFSGSGSGTDFTFTISSLQPEDIATYYCQHFWYSPFTFGQGTKLEIK
T1/2: 3 min
//
BINDER: 3-F2 (Fab, V domains shown, Fab) VH: QVQLVQSGAEVKKPGASVKVSCKASGYTFTNYVILWVRQAPGQGLEWMGYINPYNDGTKYNEKFKGRVTMTRDTSTSTVYMELSSLRSEDTAVYYCARLLKYRRFSYYAIDYWGQGTTVTVSS VL: DIQMTQSPSSLSASVGDRVTITCRASENVYSNLAWYQQKPGKAPKLLIYAASNLQSGVPSRFSGSGSGTDFTFTISSLQPEDIATYYCQHFWYSPFIFGQGTKLEIK
T1/2: 1.38 min
//
BINDER: 4A6 (Fab, V domains shown, Fab) VH: QVQLVQSGAEVKKPGASVKVSCKASGYTFTNYDIIWVRQAPGQGLEWMGYINPYNRRREYNEKFKGRVTMTRDTSTSTVYMELSSLRSEDTAVYYCARLLKYRRFRYYAIDYWGQGTTVTVSS VL: DIQMTQSPSSLSASVGDRVTITCHASENVYSNLAWYQQKPGKAPKLLIYAASNLQSGVPSRFSGSGSGTDYTFTISSLQPEDIATYYCQHFWGSPFTFGQGTKLEIK
T1/2: 13.2 min
//
BINDER: 8-D2 (Fab, V domains shown, Fab) VH: QVQLVQSGAEVKKPGASVKVSCKASGYTFTNYVILWVRQAPGQGLEWMGYINPYNDGTKYNEKFKGRVTMTRDTSTSTVYMELSSLRSEDTAVYYCARLLKYRRFSYYAADYWGQGTTVTVSS VL: DIQMTQSPSSLSASVGDRVTITCRASENVYSNLAWYQQKPGKAPKLLIYAASNLQSGVPSRFSGSGSGTDFTFTISSLQPEDIATYYCQNFWYSPFTFGQGTKLEIK
T1/2: 1.81 min
//
BINDER: 7-B1 (Fab, V domains shown, Fab) VH: QVQLVQSGAEVKKPGASVKVSCKASGYTFTNYVILWVRQAPGQGLEWMGYINPYNDGTKYNEKFKGRVTMTRDTSTSTVYMELSSLRSEDTAVYYCARLLKYRRFRYYAIDYWGQGTTVTVSS VL: DIQMTQSPSSLSASVGDRVTITCRASENVYSNLAWYQQKPGKAPKLLIYAASNLQSGVPSRFSGSGSGTDFTFTISSLQPEDIATYYCQHFWYSPFKFGQGTKLEIK
T1/2: 0.81 min
